B1: Pistol ribozyme (parent)
chain: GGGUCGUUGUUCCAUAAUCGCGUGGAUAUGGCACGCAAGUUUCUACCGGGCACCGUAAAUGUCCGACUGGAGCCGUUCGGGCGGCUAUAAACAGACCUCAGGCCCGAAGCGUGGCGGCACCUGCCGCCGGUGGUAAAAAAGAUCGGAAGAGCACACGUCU

variants of: B1; experiment: aptazyme ON/OFF ratio, guanine; higher = stronger switching; co-transcriptional cleavage with and without guanine
Consider the following variants; for each one, report its aptazyme ON/OFF ratio.
// no unit string in output, number only

Give the measured aptazyme ON/OFF ratio of U7G U8C G9C U10C U11C C12A C13U .
1.05

Which aptazyme ON/OFF ratio value belongs to U7G U8C G9C U11G C12A C13G ?
1.33

Entry U7C U8A G9C U10G U11A C12A C13A has what aptazyme ON/OFF ratio?
1.17

// query aptazyme ON/OFF ratio value for entry U7A U8A G9A U10G U11C C12A C13G
1.14

What does the data say about its aptazyme ON/OFF ratio? Entry: U7G U8C G9C C12U C13A
1.1

Returns the measured aptazyme ON/OFF ratio for the input variant. Input: U7C U8C G9A U11C C12G C13A
1.34

Which value of aptazyme ON/OFF ratio has been reported for U7C U8G G9A U10A U11A C12A C13A in the records?
1.2

Please give the measured aptazyme ON/OFF ratio for this variant: U7G G9C U10A U11G
3.08

Which measured aptazyme ON/OFF ratio value corresponds to U7A U8C U10G U11C C12A C13G ?
1.12

What value of aptazyme ON/OFF ratio has been recorded for this entry: U7C U8C U11A C12G C13A
1.13

# query: aptazyme ON/OFF ratio of entry U7A U8C G9A U10A U11G C12A C13G
1.23
